Recorded values, source paper PMC12040169.

Entries and their measured viability at 28.5 h, 10 µM follow.
test: in vitro; conditions: human, hela cells, % viability

| compound | viability at 28.5 h, 10 µM [%] |
| --- | --- |
| COc1ccccc1-c1cc(Nc2cccc(N(C)C)c2)ncn1 | 95.5 |
| O=C(c1ccccn1)C1CCCN(c2nccc(CCC(F)(F)F)n2)C1 (centres unmarked) | 109 |
| c1cc(OCCN2CCCC2)c2cc[nH]c2c1 | 101 |
| N#Cc1cccc(CN2CC[C@H](c3nnc(-c4ccco4)o3)C2)c1 | 92.5 |
| Cc1ccc(SCCNCCN2CCOCC2)cc1 [CBK268581G] | 104 |

###

Entries and their measured viability at 28.5 h, 10 µM follow.
assay: in vitro; settings: human, hela cells, % viability

| compound | units label | viability at 28.5 h, 10 µM |
| --- | --- | --- |
| O=C(O)C1CCC(CNS(=O)(=O)c2ccc(Br)cc2)CC1 (stereo not shown) [CBK027994] | % | 86.1 |
| CCn1cc(S(=O)(=O)NCC2(c3ccccc3)CCCC2)cn1 [CBK282768] | % | 97.2 |
| CC(C)(C)c1ccc(OCCCC(=O)Nc2ccc(N3CCOCC3)cc2)cc1 [CBK264783] | % | 88.8 |
| O=C(NCC1(c2ccccc2)CCC1)C1CCCN(C(=O)c2ccoc2)C1 (stereo not shown) [CBK296670] | % | 85.6 |
| Cc1nc(-c2ccccc2)sc1CNC(=O)CCc1c[nH]c2ccccc12 [CBK092373] | % | 106 |
| CCN(CC)CCCCSc1ccc(O)cc1 [CBK261785C] | % | 95.7 |
| O=C(CN(Cc1ccc(F)cc1)S(=O)(=O)c1ccc(Cl)cc1)Nc1ccc2c(c1)OCCO2 [CBK265346] | % | 90.2 |
| Cc1csc(SC(C)C(=O)N2CCc3ccccc32)n1 (stereo not shown) [CBK305909] | % | 98.8 |
| COc1ccc([C@]23CC[C@H](NC(=O)c4ccc(C(F)(F)F)c(F)c4)C[C@H]2CN(C)C3)cc1OC [CBK082743T] | % | 110 |
| O=C1c2ccccc2C(=O)N1CN(CCc1ccc(Cl)cc1)CN1C(=O)c2ccccc2C1=O [CBK225934] | % | 90.8 |
| O=S(=O)(Nc1nc2c(s1)CCCC2)c1cc(Cl)ccc1Cl [CBK096578] | % | 98.7 |
| NC(=O)Nc1ccc(C(=O)N2CCN(c3ccccc3)CC2)cc1 [CBK306392] | % | 101 |
| O=C(CC1CCCC1)N1CCC(c2nnc(-c3ccsc3)o2)CC1 [CBK283381] | % | 106 |
| COCCCNC(=O)Cn1cccc2cc(-c3ccc(F)cc3)nc1-2 [CBK284834] | % | 93.4 |
| O=C1COc2ccccc2C/C=C/CC2(CCN(CC(=O)N3CCCC3)CC2)CN1 [CBK292126] | % | 93.7 |
| O=C(O)CC(Cc1ccccc1)c1ccc(Cl)cc1 (stereo not shown) [CBK270231] | % | 89.6 |
| CCOC(=O)c1cccc(-c2cc3ccccc3o2)n1 [CBK149243] | % | 114 |
| Cc1cc(NC(=O)C2CCN(C(=O)c3cnc(N)c(Cl)c3)CC2)no1 [CBK305545] | % | 110 |
| Cc1cc(NC(=O)CCN2CCCCC2)no1 [CBK017079] | % | 99 |
| CCN1CCN(C(=O)CN(CCc2ccccc2)S(C)(=O)=O)CC1 [CBK266666] | % | 91.8 |
| Cc1ccc(NC(=S)N2CCCC2C(=O)O)c(C)c1 (stereo not shown) [CBK007148] | % | 79.3 |
| O=C(NCCN1CCOCC1)c1cc(-n2cnnc2)ccc1Cl [CBK268023] | % | 97.1 |
| Cc1sc2ccc(-c3ccccc3)cc2[n+]1CCCS(=O)(=O)[O-] [CBK260947] | % | 90.7 |
| O=C(C1=C(O)C(=O)N(CCCN2CCOCC2)C1c1ccccn1)c1ccccc1 (stereo not shown) [CBK266604] | % | 93.4 |
| Cc1ccc([N+](=O)[O-])cc1NC1OC(C(O)CO)C(O)C1O (stereo not shown) [CBK262031] | % | 98 |
| C(=C\c1nccnc1OCCc1c[nH]c2ccccc12)/c1ccccc1 [CBK106872] | % | 91.7 |
| Cc1cc2c(cc1C)N(C(=O)CSc1ncn[nH]1)C(C)(C)c1ssc(=S)c1-2 [CBK263786] | % | 96.3 |
| Cc1cc(NC(=O)c2ccc(S(=O)(=O)N3CCOCC3)cc2)nc2c1c(=O)oc1ccccc12 [CBK291134] | % | 106 |
| COc1cccc(/C=N/NC(=O)CSc2nnc(C)n2-c2ccccc2)c1O [CBK262758] | % | 80.7 |
| Cn1nc(-c2ccc(S(=O)(=O)NCCN3CCNC3=O)s2)cc1C(F)(F)F [CBK062610] | % | 91.6 |
| Cc1ccc2nc(-c3ccc(N4C(=O)CC(N5CCN(CCOCCO)CC5)C4=O)cc3)sc2c1 (stereo not shown) [CBK265362] | % | 86.1 |
| Clc1ccc(COc2cncc(OC3CCN(CC4CC4)C3)n2)cc1Cl (stereo not shown) [CBK084443] | % | 86.5 |
| CCCCCn1c(=O)c(Cc2ccccc2)c(O)c2ccccc21 [CBK291233] | % | 93.2 |
| O=C(Nc1ccccc1-c1nc2ccccc2[nH]1)c1ccncc1 [CBK270148] | % | 94.5 |
| COC(=O)C(NC(=O)c1cnc(-c2ccc(Cl)cc2)c(-c2ccc(O)cc2)c1)c1ccccc1 (stereo not shown) [CBK036723] | % | 90.6 |
| O=C(Nc1ccc2cc(Br)cnc2n1)c1ccccc1[N+](=O)[O-] [CBK063253] | % | 96.8 |
| COc1ccc([C@H]2CN(C(=O)c3ccccc3)[C@@H]3CCN(Cc4cccc(F)c4)C[C@H]23)cc1 [CBK285584] | % | 98.9 |

###

system: CTL2-GFP (C. trachomatis L2/434/Bu, GFP-expressing); construct: L2/434/Bu, GFP-expressing; assay: microbe, parasite or virus in culture; design: species or system HeLa; C. trachomatis growth in HeLa, dose-response, mean of bulk GFP fluorescence and imaged total inclusion area; details: Chlamydia trachomatis, 28.5 h; mean of GFP and inclusion area
readout label: MIC (µM)

| molecule | quantitative result |
| --- | --- |
| CCCCc1ccc(Nc2csc(N)n2)cc1 [c11e] | 3.11 |
| COc1cccc(CNC(C(=O)O)c2ccc3c(c2)OCO3)c1 (centres unmarked) [c40e] | 10.8 |
| CC(Cc1nc(-c2nccn2C)cs1)n1cc(Cl)cn1 (centres unmarked) [c14e] | 3.65 |
| N#Cc1c(Nc2cccc(C(F)(F)F)c2)sc(C(=O)c2ccc3c(c2)OCO3)c1N [c8e] | 0.936 |
| CCCN(CCC)CCc1cccc2c1CCN2C(=O)c1cc2ccccc2s1 [c15e] | 3.22 |

###

experiment: in vitro; settings: human, hela cells, % viability

| molecule | viability at 28.5 h, 10 µM / % |
| --- | --- |
| CCc1cc(C(=O)NC(CCn2ccnc2)c2ccccc2)cc(=O)[nH]1 (centres unmarked) [CBK306679] | 114 |
| O=C(Nc1ccc2ncccc2c1)c1cccc(F)c1Cl [CBK159800] | 85.9 |
| Cc1cccc(CN2CCC(NC(=O)Cn3cnnn3)CC2)c1 [CBK305649] | 95.9 |
| CCCC(=O)N1CCC(Cc2ccc(-c3cccc(C)c3)cc2)(C(=O)NC)CC1 [CBK285786] | 104 |
| Cn1ccnc1C1(O)CC2CCC(C1)N2C(=O)c1c(F)cccc1F (centres unmarked) [CBK284092] | 88.7 |

###

Entries and their measured viability at 28.5 h, 10 µM follow.
experiment: in vitro; conditions: human, hela cells, % viability

| molecule | units label | viability at 28.5 h, 10 µM |
| --- | --- | --- |
| CC(CN1CCOCC1)OC(=O)c1ccco1 (centres unmarked) [CBK264606C] | % | 92.9 |
| COc1cccc(C(=O)N2CCC(NC(=O)c3cc(F)ccc3F)CC2)c1 | % | 99.4 |
| O=S(=O)(Nc1ccc(-c2nc3cccnc3s2)cc1)c1ccccc1 | % | 116 |
| Cc1cc(F)ccc1S(=O)(=O)N1CCC2(CC1)CNC(=O)C2 | % | 104 |
| FC(F)(F)c1cc(-c2cn3ccnc3c(Nc3ccc4[nH]ccc4c3)n2)cc(C(F)(F)F)c1 | % | 91.7 |
| c1cncc(CNc2nc(-c3cccs3)cn3ccnc23)c1 | % | 104 |
| O=C(O)/C=C\C(=O)Nc1ccc(Oc2ccccc2)cc1 | % | 102 |
| O=C(NCCN1CCCC1)C1CCCN(c2nc3c(-c4ccccc4)csc3c(=O)[nH]2)C1 (centres unmarked) | % | 109 |
| O=C(Cn1c2ccccc2c(=O)c2ccccc21)Nc1ccc(-n2cncn2)nc1 | % | 93.1 |
| Cc1nn(C)c(C)c1CCC(=O)NCC1CN(c2ccccc2)CCO1 (centres unmarked) | % | 103 |
| Nc1nnc(-c2ccc(Cl)cc2)[nH]1 | % | 118 |
| Cc1ccc(-c2cncc(N3CCCC3CO)n2)cc1C (centres unmarked) | % | 89.1 |
| CCNS(=O)(=O)c1ccc(NC(=S)Nc2ccc(S(N)(=O)=O)cc2)cc1 | % | 99.5 |
| O=C1NCCCc2nc(Nc3ccccc3)sc21 | % | 83.8 |
| CN1CCC(N2C[C@H](O)C[C@H]2c2nc(-c3ccc4c(c3)OCO4)no2)CC1 | % | 93.6 |
| COc1cc(OC)cc(C(=O)Nc2cccc(-c3nc4ccccc4o3)c2)c1 | % | 95.5 |
| CN(c1ccc(C(=O)Nc2cccc(C(=O)O)c2)cc1)S(=O)(=O)c1ccccc1 | % | 95.7 |
| O=C(Nc1ccccc1C(=O)N1CCCC1)c1ccccc1CCc1ccccc1 | % | 104 |
| CCn1cc(-c2cncn2CC(C)N2CCCCC2)cn1 (centres unmarked) | % | 103 |
| COc1ccc2nc(C(=O)O)sc2c1 [CBK026523N] | % | 88.4 |
